System: Human immunodeficiency virus 1
measurement protocol: Antiviral activity against HIV1 infected in human MT2 cells
Assay type: functional, organism-based
conditions: Human immunodeficiency virus 1, MT2
property: pIC50
// pIC50 is dimensionless: -log10 of concentration (M)

Data request, read-out pIC50, for `CCCCOc1c2cc(C(=O)Nc3cc(C(=O)O)cc(C(=O)O)c3)cc1Cc1cc(C(=O)Nc3cc(C(=O)O)cc(C(=O)O)c3)cc(c1OCCCC)Cc1cc(C(=O)Nc3cc(C(=O)O)cc(C(=O)O)c3)cc(c1OCCCC)Cc1cc(C(=O)Nc3cc(C(=O)O)cc(C(=O)O)c3)cc(c1OCCCC)C2` 6.44

###

Test system: Human immunodeficiency virus 1
measurement protocol: Antiviral activity against HIV1 infected in human MT2 cells
Assay type: functional, organism-based
conditions: Human immunodeficiency virus 1, MT2
Field: label. Allowed values: YES (IC50 < 7 µM) or NO (IC50 >= 7 µM).

Example entries begin here.
# check: IC50 < 7 µM for `CCCCOc1c2cc(C(=O)N[C@@H](CCC(=O)O)C(=O)O)cc1Cc1cc(C(=O)N[C@@H](CCC(=O)O)C(=O)O)cc(c1OCCCC)Cc1cc(C(=O)N[C@H](CCC(=O)O)C(=O)O)cc(c1OCCCC)Cc1cc(C(=O)N[C@@H](CCC(=O)O)C(=O)O)cc(c1OCCCC)C2` YES

# check: IC50 < 7 µM for `O=C(O)c1cc2c(O)c(c1)Cc1cc(C(=O)O)cc(c1O)Cc1cc(C(=O)O)cc(c1O)Cc1cc(C(=O)O)cc(c1O)C2` NO

# check: IC50 < 7 µM for `O=C(O)c1cc2c(OCc3ccccc3)c(c1)Cc1cc(C(=O)O)cc(c1OCc1ccccc1)Cc1cc(C(=O)O)cc(c1OCc1ccccc1)Cc1cc(C(=O)O)cc(c1OCc1ccccc1)C2` NO

# check: IC50 < 7 µM for `CCCCOc1c2cc(C(=O)Nc3cc(C(=O)O)cc(C(=O)NC4CCCCC4)c3)cc1Cc1cc(C(=O)Nc3cc(C(=O)O)cc(C(=O)NC4CCCCC4)c3)cc(c1OCCCC)Cc1cc(C(=O)Nc3cc(C(=O)O)cc(C(=O)NC4CCCCC4)c3)cc(c1OCCCC)Cc1cc(C(=O)Nc3cc(C(=O)O)cc(C(=O)NC4CCCCC4)c3)cc(c1OCCCC)C2` NO

# check: IC50 < 7 µM for `CCCCOc1c2cc(C(=O)O)cc1Cc1cc(C(=O)O)cc(c1OCCCC)Cc1cc(C(=O)O)cc(c1OCCCC)Cc1cc(C(=O)O)cc(c1OCCCC)C2` YES

# check: IC50 < 7 µM for `O=C(O)c1cc(NC(=O)c2cc3c(O)c(c2)Cc2cc(C(=O)Nc4cc(C(=O)O)cc(C(=O)O)c4)cc(c2O)Cc2cc(C(=O)Nc4cc(C(=O)O)cc(C(=O)O)c4)cc(c2O)Cc2cc(C(=O)Nc4cc(C(=O)O)cc(C(=O)O)c4)cc(c2O)C3)cc(C(=O)O)c1` YES

Next compound, please.
# check: IC50 < 7 µM for `O=C(O)c1cc(NC(=O)c2cc3c(OCc4ccccc4)c(c2)Cc2cc(C(=O)Nc4cc(C(=O)O)cc(C(=O)O)c4)cc(c2OCc2ccccc2)Cc2cc(C(=O)Nc4cc(C(=O)O)cc(C(=O)O)c4)cc(c2OCc2ccccc2)Cc2cc(C(=O)Nc4cc(C(=O)O)cc(C(=O)O)c4)cc(c2OCc2ccccc2)C3)cc(C(=O)O)c1` YES
